Assay: protein stability index of a GFP-peptide fusion (yeast GPS) (PSI 1-4); higher = more stable; sorted into four equal gates, so the index is relative within each strain
Settings: san1∆
Measured protein stability index, listed per entry.
In your answer, state the number alone without any accompanying words.

Examples with their reported protein stability index follow.
{"columns": ["sequence_entry", "protein stability index"],
 "data": [
  ["DKLINDVTAIQTWSYLS [ECM29]", 1.74],
  ["NGQRSNSIRAREVENSV [SMC1]", 3.36],
  ["NFLVFQGDVEQIAAQSP [SMC1]", 2.68],
  ["LSLYSTDLENSSLFQEK [ECM29]", 3]
]}

q: Which measured protein stability index value corresponds to MSNTLFDDIFQVSEVDP [RPB8] ?
a: 2.85

q: Which measured protein stability index value corresponds to RILNFFDKNTKTTPNTA [YMR153W/NUP53] ?
a: 2.56

q: Which measured protein stability index value corresponds to VQQFAQLPVGFKNMGNT [UBP6] ?
a: 1.44

q: Which measured protein stability index value corresponds to AVEFESVPLRKGDRALL [BRR2] ?
a: 2.98

q: Which measured protein stability index value corresponds to LVDQGFNYSGKDMLYSG [RET1] ?
a: 3.36

q: Which measured protein stability index value corresponds to GQQTAQPQQSTIGGGLF [YGR119C/NUP57] ?
a: 2.93

q: Which measured protein stability index value corresponds to EVCAKMPNIELYLKVIP [SSN2] ?
a: 2.48

q: Which measured protein stability index value corresponds to ANVEILAVEDKPSPIDS [CSL4] ?
a: 2.57

q: Which measured protein stability index value corresponds to NAEVVAGNIKCRNDAVN [BRR2] ?
a: 3.05

q: Which measured protein stability index value corresponds to AVVQTVKGLLNTYKRLV [YJL039C/NUP192] ?
a: 1.92

q: Which measured protein stability index value corresponds to KKFGGKGARSRFQKSYR [RPS16A] ?
a: 3.27

q: Which measured protein stability index value corresponds to MLQKKLVEVEDEKIEAI [SRB7] ?
a: 3.16

q: Which measured protein stability index value corresponds to GGFEDVEEYTWSSLLNE [RPB2] ?
a: 3.12

q: Which measured protein stability index value corresponds to NSKPVELKPVSLDNKTL [YJL041W/NSP1] ?
a: 2.69

q: Which measured protein stability index value corresponds to PLINRLKHYNGYDINYI [SWI1] ?
a: 2.76

q: Which measured protein stability index value corresponds to PNIMLIFGSGFGSADDT [FAS1] ?
a: 3.12

q: Which measured protein stability index value corresponds to WTMRIEGRLLDNVQAND [SNF12] ?
a: 2.7

q: Which measured protein stability index value corresponds to FILTIATAFLGYCCVYG [COB] ?
a: 1.22

q: Which measured protein stability index value corresponds to DTEMKMKSLLTELSNKE [YIL149C/MLP2] ?
a: 3.21

---

Assay: protein stability index of a GFP-peptide fusion (yeast GPS) (PSI 1-4); higher = more stable; sorted into four equal gates, so the index is relative within each strain
Conditions: ubr1∆
property_measured: protein stability index
In your answer, state the number alone without any accompanying words.

Examples with their reported protein stability index follow.
{"columns": ["sequence_entry", "protein stability index"],
 "data": [
  ["LFVCNKDPDVPLVLLQQ [POP3]", 2.27],
  ["QGMEGTVDLALFGSPPF [YMR129W/POM152]", 3.21],
  ["RSKGKQNRPYNHPELQG [RPC17]", 1.94],
  ["EALNLLKFFLVDENETV [LIN1]", 1.14],
  ["AEEALEPSYIFEYLATV [PRE4]", 2.73],
  ["SNASRRKLINYTKKHLS [RPN4]", 1.34],
  ["DFIGHNSNINTLTASPD [ASC1]", 2.96],
  ["NWRSFNAKIIDAEVAQF [SRP68]", 2.43],
  ["RGTDIDRINYTETALMN [SRB5]", 2.73],
  ["IVGVLQDDADPMVSVMK [RPT2]", 2.26]
]}

q: Which measured protein stability index value corresponds to VDPKRLAMVIIKEFVDD [DSN1] ?
a: 3.1

q: Which measured protein stability index value corresponds to KITSPIRSVALNDSNVK [RRP42] ?
a: 2.94

q: Which measured protein stability index value corresponds to HRLLQRALFRQLKRWYW [RMP1] ?
a: 1.35

q: Which measured protein stability index value corresponds to NVQTQYREAPVIYRGPE [RET1] ?
a: 3.14

q: Which measured protein stability index value corresponds to SQFNGSGNGSNPNTNTN [PGD1] ?
a: 2.89

Provenance of the data: the supplement of paper PMC9732359
